The following compounds are shown together with reported melting point values.

Solved entries (count: 3):
O=C1N(Cc2ccccc2)C2CSC(O)C2N1Cc1ccccc1 (stereo unspecified) :: 163 to 164 °C
CCC(CC)c1nn(-c2ccc(C(F)(F)F)cn2)cc1CCCOc1c(C)cccc1CC(=O)O :: 125 to 126 °C
CC(=O)Nc1ccc(OC(=O)CO)cc1 :: 144 to 146 °C

Lookup: Answer with the recorded melting point for the compound listed here: `Clc1ccc(-c2csc(NCc3cnc(NCc4ccccc4)s3)n2)cc1`
Found: 105 to 106 °C

Lookup: Output measured melting point for this item: `COc1cc(N)c(Cl)cc1C(=O)NCC1CCN(CCCOc2ccccc2)CC1`
Found: 132 to 134 °C

Lookup: Specify reported melting point for the compound shown: `COc1ncc(NC(=S)NC(=O)c2ccccc2)c(OC)n1`
Found: 182 °C

Lookup: Output measured melting point for this item: COC1C(N2CCCC2=O)c2sccc2OC1(C)C (stereo unspecified)
Found: 117 to 118 °C

Lookup: // fetch melting point given entry `CC(=O)Nc1cccc(C=O)c1`
Found: 68 to 70 °C

Lookup: Tell me its melting point given CC(=O)OCC(N=O)C(C)(C)Cl (stereo unspecified) as the entry.
Found: 117 to 119 °C

Lookup: Output measured melting point for this item: `Cc1c(C)n(Cc2ccccc2)c(=O)n(CCCCl)c1=O`
Found: 72 to 74 °C

Lookup: Annotate the compound O=Cc1c[nH]c2ccc3c(c12)CC(O)CO3 (stereo unspecified) with its measured melting point.
Found: 158 to 162 °C

====

observable: melting point

// worked examples, melting point included
CN1CC(=O)N(c2ccc(C(C)(C)C)cc2)C1=S :: 156 to 158 °C
CC1=C(C)C(C)(OC(N)=O)N(c2ccc(Cl)c(Cl)c2)C1=O (stereo unspecified) :: 141 to 142 °C
O=C(CCCCCNC(=O)[C@H](Cc1c[nH]c2ccccc12)NC(=O)Cc1ccc2ccccc2c1)NO :: 112 to 114 °C
O=C1OC(=O)c2cscc21 :: 147 to 149 °C
CC1(C)C(C#N)C1(C)C :: 17 °C
CC(C)n1nc(-c2c(-c3ccccc3)nn3ccc(OCC(=O)N(C)C)cc23)ccc1=O :: 189 to 190 °C
COc1cccc2c1C(NC1=Nc3ccc(Nc4nnc(C)o4)cc3CO1)CC2 (stereo unspecified) :: 162 °C
O=C(c1ccccc1)c1ccc(OCCCCCCBr)cc1 :: 47 to 49 °C
CCCCCCCCCCCCOc1cc(O)c(C(=O)c2ccccc2)cc1Cl :: 75 to 77 °C
CCCc1nc2cccc(C(=O)OC)c2n1Cc1ccc(-c2ccccc2C(=N)NOC(C)=O)cc1 :: 177 to 178 °C

Lookup: Give melting point for the following compound: `O=[N+]([O-])C1(CNC(CO)(CO)CO)CCCCC1`
Found: 110 to 113 °C

====

observable: melting point

Illustrative cases are given below, each with its answer.
NC(=NCC(F)(F)F)Nc1ccnc(OCCCc2ccccn2)n1 :: 118 to 120 °C
CCCc1nn(C)c2c(=O)n(CCNc3ccc(OC(C)(C)C(=O)O)cc3)c(C)nc12 :: 88 to 90 °C
Cc1nn(-c2ccccn2)c2ncc(C(=O)c3ccccc3)c(O)c12 :: 224 to 226 °C

Lookup: Report melting point for CC(C)(C)OC(=O)[C@H]1C[C@H](C(=O)O)[C@@H](c2ccccc2)N1C(=O)CNC(=O)Nc1ccc(Cl)cc1 (racemic)
Found: 248 °C

Lookup: Please give the documented melting point of `Cc1cc(S(=O)(=O)Nc2cccc(Br)c2)c2c(C)ccc(C(C)C)cc1-2`
Found: 172 to 174 °C

Lookup: Read off the recorded melting point for CC(CN1C(=O)c2ccccc2C1=O)OS(C)(=O)=O (stereo not drawn)
Found: 111 to 121 °C

Lookup: Fill in melting point for record `COc1cccc(CNC(=O)c2nc3scc(CCOc4ccc(C(=O)O)cc4)c3c(=O)[nH]2)c1`
Found: 237 to 241 °C

Lookup: Supply recorded melting point for `O=C(NCC12CC3CC(CC(C3)C1)C2)c1cc(N2CC2)ccc1Cl` here.
Found: 154 to 155 °C

====

observable: melting point

Example results:
C=CCC(CC=C)(C(=O)NO)S(=O)(=O)c1ccc(OC)cc1 :: 114 to 116 °C
Cc1cccc2sc(-n3nc4c(c3O)-c3ccccc3CC4)nc12 :: 224 to 225 °C

Please turn your attention to the following entry.
Lookup: Note down melting point recorded for CC(CC1(c2ccccc2)C=CCC=C1)OS(C)(=O)=O (stereo not drawn)
Found: 51 to 53 °C

====

Measured melting point of individual entries

Lookup: Please report melting point for the following compound: `CCCCCCCC(=O)c1ccc(CCO)cc1`
Found: 47.4 °C

Lookup: Quote melting point reported for O=C1CCC(N2Cc3c(OCc4cc(CN5CCOCC5)co4)cccc3C2=O)C(=O)N1 (stereo not drawn) please.
Found: 168 to 170 °C

Lookup: Note melting point for the compound shown: `NS(=O)(=O)c1cccc(N/C=C2\C(=O)Nc3ccccc32)c1`
Found: > 250 °C

Lookup: Tell me measured melting point for `CCCCCCCCCCCCCc1cc(C(=O)OCCC)c[nH]1` please.
Found: 51 to 52 °C

Lookup: Determine from records and report melting point for `O=C(O)c1ccc(-c2ncn(-c3ccc(C(F)(F)C(F)(F)C(F)(F)F)cc3)n2)cc1`
Found: 225 °C

Lookup: Return melting point (reported value) for this compound: O=C(O)C1=Cc2ccccc2OC1C(F)(F)F (stereo not drawn)
Found: 152 to 153 °C

====

melting point for assorted molecules

O=c1c(Br)c(OCc2ccc(Cl)cc2F)cnn1-c1ccc(Cl)c(Cl)c1 :: 172 to 173 °C
Cc1nnc(C(F)(F)F)n1-c1ccccc1 :: 118 °C
Cc1ccc(C2=C(c3ccc(S(C)(=O)=O)cc3)OC(C)(C)C2=O)cc1 :: 167 to 168 °C
CCCCCCCCCCCCNC(=O)OCc1ccc(OC(C)=O)c(OC)c1 :: 54 to 56 °C
CN(C)Cc1ccc(CSCCNC2=NS(=O)(=O)c3cscc32)o1 :: 120 to 124 °C

Now look at this entry.
Lookup: Answer with reported melting point of `COc1cc2ncnc(N3CCc4ccccc43)c2cc1OC`
Found: 162 to 163 °C

====

observable: melting point

CCCCOC(=O)n1nc(-c2cc(Cl)c(C)c(Cl)c2)ccc1=O :: 153 to 157 °C

Lookup: Quote melting point reported for `CS(=O)(=O)Nc1ccc(F)c(C(=O)O)c1` please.
Found: 203 to 205 °C

Lookup: Query melting point for `COC=C(C(=O)OC)c1ccccc1Oc1ccn(-c2ccc(Cl)cc2)n1`
Found: 109 to 110 °C

Lookup: # return recorded melting point for input CC(C)(C)C(NC(=O)c1ccc(I)cc1)NC(=NC#N)Nc1cccnc1 (configuration not stated)
Found: 180 to 183 °C

Lookup: State its melting point for this molecule: COc1cc(OC)c2c(=O)[nH]c(-c3cccc(-c4ccc(S(C)=O)cc4)c3)nc2c1 (configuration not stated)
Found: > 300 °C

====

observable: melting point

Cc1cc2cc(Nc3ccnc4cc(-c5ccc(C=O)cc5)sc34)ccc2[nH]1 :: 223 to 240 °C
CCCCCCCCCCC(O)CNCCCCCCNCC(O)CCCCCCCCCC (stereo not drawn) :: 124 to 128 °C
COc1ccc(C(=O)c2ccccc2C(F)(F)F)c(O)c1Cl :: 101 to 102 °C
CC12CCCc3cc(Nc4ncc(C(=O)O)cn4)cc(c31)CCC2 :: > 300 °C
Cc1nc2sc3c(NCCCN4CCCC4=O)ncnc3c2c2c1CCC(C)(C)C2 :: 205 to 206 °C
CC(C)(C)c1cc(CCc2ccccc2NC(=O)NC2CCN(Cc3ccncc3)CC2)cc(C(C)(C)C)c1O :: 156 to 158 °C
CC(C)(C)OC(=O)c1ncn2c1[C@@H]1CCN1C(=O)c1c(Br)cccc1-2 :: 240 to 241 °C
CC(=O)Nc1ccc(-n2c(-c3ccccc3)cc3c2CCCC3)cc1C(=O)O :: 192 to 194 °C

Lookup: Kindly indicate its recorded melting point. Item: O=C(CC1CCCCC1=O)c1ccc(Br)cc1 (stereo not drawn)
Found: 78 to 80 °C

Lookup: Identify measured melting point corresponding to `Cn1cc([C@H]2CC[C@@H](N3CCN(c4cc(C=O)cc5cccnc45)CC3)CC2)c2cc(C#N)ccc21`
Found: 172 to 174 °C

Lookup: Respond only with melting point recorded for O=C(c1ccccc1)c1cc(Cl)cc2c1S(=O)(=O)CC2C(=O)O (stereo not drawn)
Found: 158 to 161 °C

Lookup: Supply recorded melting point for CCCCCCCCCCCCCCC1C(=O)OC2OC3(C)CCC4C(C)CCC1C24OO3 (single isomer, unassigned; (+)) here.
Found: 65 to 66 °C

Lookup: Answer with reported melting point of `COc1c2c(c(OC)c(OC)c1OC)CCC(=O)CC2`
Found: 77 to 78 °C

Lookup: Give melting point for the following compound: `O=C(O)c1ccc(OCc2cccc(Cl)c2)cn1`
Found: 176 to 177 °C
